Entry source: the supplement of paper PMC3545927

system_tested: furin, P09958;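 also: purified furin at 1:10 enzyme:substrate in 50 mM HEPES pH 7.5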
Sequence (P09958 whole entry): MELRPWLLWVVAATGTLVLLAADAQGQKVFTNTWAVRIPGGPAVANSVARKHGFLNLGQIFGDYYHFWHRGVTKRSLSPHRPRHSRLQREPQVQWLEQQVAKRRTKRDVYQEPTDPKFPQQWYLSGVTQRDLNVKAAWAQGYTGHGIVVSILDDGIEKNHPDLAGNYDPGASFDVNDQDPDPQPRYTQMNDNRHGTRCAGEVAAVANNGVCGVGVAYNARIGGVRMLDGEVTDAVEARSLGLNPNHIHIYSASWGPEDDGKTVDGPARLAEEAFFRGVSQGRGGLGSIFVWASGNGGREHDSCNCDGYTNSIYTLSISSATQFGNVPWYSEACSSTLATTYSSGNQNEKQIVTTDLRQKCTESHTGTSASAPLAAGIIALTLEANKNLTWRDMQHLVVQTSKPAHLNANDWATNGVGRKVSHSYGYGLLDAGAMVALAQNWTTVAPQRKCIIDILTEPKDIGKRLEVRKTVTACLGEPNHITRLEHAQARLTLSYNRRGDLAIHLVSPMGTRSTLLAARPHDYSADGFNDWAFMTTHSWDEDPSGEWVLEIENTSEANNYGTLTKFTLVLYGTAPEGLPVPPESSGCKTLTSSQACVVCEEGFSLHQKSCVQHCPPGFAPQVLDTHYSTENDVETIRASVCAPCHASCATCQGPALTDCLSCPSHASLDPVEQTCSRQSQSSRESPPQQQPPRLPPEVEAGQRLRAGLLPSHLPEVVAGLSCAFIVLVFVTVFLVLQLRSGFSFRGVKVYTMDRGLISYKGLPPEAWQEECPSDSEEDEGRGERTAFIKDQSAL
assay_text: furin cleavage Z-score vs untreated control; higher = more cleavage, active = 3.5 or more, inactive = 1 or less, 8 variable residues between constant flanks
test_settings: 7.5 min
The list shows a part of the results. The hit rate among all sequences tested is not known here.
Catalogue of furin cleavage Z-score readings, one per entry.
readout_kind: furin cleavage Z-score

{"columns": ["record_sequence", "readout_kind", "test_result"],
 "data": [
  ["CASYSWTGALAGNASASA [HC1372]", "furin cleavage Z-score", -0.915],
  ["CAREFRAHRSAGNASASA [FS-487]", "furin cleavage Z-score", 1.52],
  ["CASRKRAPRSAGNASASA [FS-963]", "furin cleavage Z-score", 10.6],
  ["CACYIKARAAAGNASASA [HC1518]", "furin cleavage Z-score", -1.15]
]}
